B1: library; numbered along this chain (parent)
chain: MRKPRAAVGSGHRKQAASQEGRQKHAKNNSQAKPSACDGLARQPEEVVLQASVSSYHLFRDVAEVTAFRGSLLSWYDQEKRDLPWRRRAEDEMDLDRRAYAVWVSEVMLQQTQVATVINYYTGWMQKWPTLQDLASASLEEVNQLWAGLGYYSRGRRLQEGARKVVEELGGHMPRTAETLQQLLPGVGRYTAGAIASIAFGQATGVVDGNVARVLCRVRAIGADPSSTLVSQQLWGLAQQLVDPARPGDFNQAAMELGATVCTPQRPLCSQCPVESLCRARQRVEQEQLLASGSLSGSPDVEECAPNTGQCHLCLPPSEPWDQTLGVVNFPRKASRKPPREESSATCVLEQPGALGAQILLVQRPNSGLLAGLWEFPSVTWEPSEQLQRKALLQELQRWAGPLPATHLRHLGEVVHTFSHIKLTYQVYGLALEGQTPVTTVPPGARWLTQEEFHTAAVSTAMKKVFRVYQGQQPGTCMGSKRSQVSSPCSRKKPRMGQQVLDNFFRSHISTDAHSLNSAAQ

# Variants of: B1
# test-name: 8OG:A repair function score (normalized; synonymous = 0, nonsense = -1) (normalized log-likelihood score); higher = more repair activity (WT-like);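 note: cells sorted at 72 h after reporter transfection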
# condition-info: with 8OG:A DNA repair reporter (GFP) in HEK-293 MUTYH KO cells
The entries below come with measured 8OG:A repair function score values attached.
experimental-endpoint: 8OG:A repair function score

mutation-list | experimental-endpoint | val
V458Y | 8OG:A repair function score | -0.724
Q159S | 8OG:A repair function score | -0.121
P264K | 8OG:A repair function score | -0.048
L58G | 8OG:A repair function score | 0.00575
E452V | 8OG:A repair function score | -0.351
K464I | 8OG:A repair function score | -0.441
